# Measured target: T1, Aβ (1-42) peptide (human)
# T1 construct: also called Aβ1-42 fibers; Aβ4
# Measurement description: SPR, immobilized fibers;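 further: biacore SPR using in vitro grown Aβ1-40 or Aβ1-42 fibrils immobilized on the chip with Fab analytes, KD from koff/kon fits or equilibrium isotherms based on total Fab concentration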
// pKd lookup, one value per entry
pKd is a log-scale quantity: -log10 of the concentration expressed in molar.

I'd like to know its pKd. The binder in question is MS-Roche #7.12.L4 Fab (Fab, V domains shown) VH: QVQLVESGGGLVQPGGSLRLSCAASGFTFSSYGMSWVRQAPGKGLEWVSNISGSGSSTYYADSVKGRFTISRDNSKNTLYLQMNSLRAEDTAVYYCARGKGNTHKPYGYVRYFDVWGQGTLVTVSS VL: DIVLTQSPATLSLSPGERATLSCRASQRLKRSYLAWYQQKPGQAPRLLISGSSNRATGVPARFSGSGSGTDFTLTISSLEPEDFAVYYCLQLYNIPNTFGQGTKVEIKR
9.22

Query MS-Roche #7.9.H2 Fab (Fab, V domains shown, assembled) VH: QVQLVESGGGLVQPGGSLRLSCAASGFTFSSYAMSWVRQAPGKGLEWVSAINADGNRKYYADSVKGRFTISRDNSKNTLYLQMNSLRAEDTAVYYCARGKGNTHKPYGYVRYFDVWGQGTLVTVSS VL: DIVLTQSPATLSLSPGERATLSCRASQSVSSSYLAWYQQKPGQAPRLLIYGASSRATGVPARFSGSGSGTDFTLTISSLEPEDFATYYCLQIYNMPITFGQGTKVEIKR next
8.24

Query MS-Roche #7.11.H4 Fab (Fab, V domains shown) VH: QVQLVESGGGLVQPGGSLRLSCAASGFTFSSYAMSWVRQAPGKGLEWVSAINANGYKTYYADSVKGRFTISRDNSKNTLYLQMNSLRAEDTAVYYCARGKGNTHKPYGYVRYFDVWGQGTLVTVSS VL: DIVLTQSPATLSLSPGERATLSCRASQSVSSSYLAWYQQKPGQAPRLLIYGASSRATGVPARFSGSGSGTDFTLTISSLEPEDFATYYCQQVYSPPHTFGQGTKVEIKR next
8.77

This collection of values is drawn from patent US20100172907A1.
